- Test system: Fibrinogen (Alexa647-labelled)
- EXPERIMENT: fibrinogen binders on compound microarrays, profiling panel, artefact control for SMM control-protein annotation, biochemical, small-molecule microarray, 635/667 nm fluorescence (AID 1131);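 further: z-score merges 667 nm fluorescence with per-spot signal-to-noise over triplicate slides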
- PROTOCOL_CONDITIONS: fibrinogen-A647 binding fluorescence, higher = more signal
Listing of recorded composite z-score by entry.
Please state the value as a number alone, without comment.

Examples with their reported composite z-score follow.
molecule="COc1cc2c(cc1O)C(C)N(Cc1sc3ccccc3c1Cl)CC2 (stereo unspecified)" endpoint_result=-2.68
molecule=C=C(CCCC)C(=O)CC[C@@H](OC(C)=O)c1ccc(OCCO)cc1 endpoint_result=-0.134
molecule=COC(=O)[C@@]1(Cc2ccc(F)cc2)[C@H]2c3cc(C(=O)N4CCCC4)n(CCSCCO)c3C[C@H]2CN1C(=O)c1ccccc1 endpoint_result=0.982
molecule=CCCN1C(=O)[C@@]2(c3ccc([N+](=O)[O-])cc3)CC(=O)N(C3CCCCC3)[C@@H]2c2ccc(CO)cc21 endpoint_result=-0.138
molecule="COc1ccc(NN2C(C(O)c3ccccc3)C=CC3C(=O)N(C4CCCCC4)C(=O)C32)cc1 (stereo unspecified)" endpoint_result=0.996
molecule="CC1C2C(CCCO)=CC(C3C(=O)N(C)C(=O)C23)N1Cc1cccc(OC(F)(F)F)c1 (stereo unspecified)" endpoint_result=0.971
molecule=COCCCNC(=O)[C@@]1(CCC(=O)OC(C)(C)C)N=C(c2ccc(OCCCO)cc2)O[C@H]1c1ccccc1 endpoint_result=0.986
molecule=C=CCN1C(=O)[C@@]2(O[C@@H](CCO)[C@H]([Si](C)(C)c3ccc(OC)cc3)[C@H]2C)c2cc(N3CCCCC3=O)ccc21 endpoint_result=0.745
molecule=CC(C)[Si](C#Cc1ccccc1)(O[C@H](c1ccccc1)c1cn(Cc2ccccc2)nn1)C(C)C endpoint_result=0.588
molecule=C[C@]1(C(=O)NC2CC2)c2ccccc2C(=O)N(Cc2cc(F)cc(C(F)(F)F)c2)[C@H]1c1ccc(CO)cc1 endpoint_result=-0.331

Exercise: For CC(C)(C)OC(=O)CC[C@@]1(C(=O)N2CCOCC2)N=C(c2ccc(OCCCO)cc2)O[C@@H]1c1ccccc1CN=[N+]=[N-] , write its composite z-score.
Solution: 0.949

Exercise: For CN1C(=O)C2C=CC(C(O)COCc3ccccc3)N(Nc3ccc([N+](=O)[O-])cc3[N+](=O)[O-])C2C1=O (stereo unspecified) , write its composite z-score.
Solution: -0.428

Exercise: For CN1C(=O)C2CC=C(C3=CCO[C@@H]3[C@H]3CCCN3S(=O)(=O)c3ccccc3[N+](=O)[O-])CC2C1=O (stereo partly specified) , write its composite z-score.
Solution: 0.533

Exercise: For C[N+](C)(C)CCCC[C@@H]1NC(=O)[C@H]2C[C@@H](C(=O)NCCCCCN)[C@@H](c3ccc(O)cc3)N2C1=O , write its composite z-score.
Solution: 1.04

Exercise: For CC(C)c1ccc(NN2C(C(O)C3=C[C@H]4C[C@@H](C3)C4(C)C)C=CC3C(=O)N(c4ccccc4)C(=O)C32)cc1 (stereo partly specified) , write its composite z-score.
Solution: 0.953

Exercise: For COc1ccc(CCNC(=O)[C@@H]2c3ccccc3C(=O)N(Cc3cc(F)cc(C(F)(F)F)c3)[C@H]2c2ccc(CO)cc2)cc1 , write its composite z-score.
Solution: 0.227
